Test: Solubility of terconazole in water at adjusted pH (Table 1A)
Format: physicochemical
Conditions: water, aqueous buffer; pH 4.99 adjusted with acetic acid
quantity.name: solubility (mg/mL)
Give the number; mg/mL is assumed, so skip it.

Task item: Name the recorded solubility for CC(C)N1CCN(c2ccc(OCC3COC(Cn4cncn4)(c4ccc(Cl)cc4Cl)O3)cc2)CC1 (stereo not shown) [Terconazole] .
Reply: 29.4
